Reported Biodistribution: Pancreas values follow for various compounds
tested on: PIP tumor and PC3 tumor; assay: Biodistribution of 125I labeled compounds 17, 18, 26 and 27 in tumor bearing nude mice; type: in vivo; conditions: 4 h
ENDPOINT LABEL: Biodistribution: Pancreas

>>> obs_value("O=C(O)CC[C@H](NC(=O)N[C@@H](CCCCNC(=O)[C@H](Cc1ccccc1)NC(=O)[C@H](CCC(=O)O)NC(=O)[C@H](CCC(=O)O)NC(=O)c1ccc([125I])cc1)C(=O)O)C(=O)O [[^125I]18]")
"0.89 ± 0.13 % ID/g"
>>> obs_value("O=C(O)CC[C@H](NC(=O)N[C@@H](CCCCNC(=O)[C@H](Cc1ccccc1)NC(=O)COc1ccc(C[C@H](NC(=O)[C@H](CCC(=O)O)NC(=O)c2ccc([125I])cc2)C(=O)O)cc1)C(=O)O)C(=O)O [[^125I]26]")
"0.52 ± 0.26 % ID/g"
>>> obs_value("O=C(O)CC[C@H](NC(=O)N[C@@H](CCCCNC(=O)[C@H](Cc1ccccc1)NC(=O)COc1ccc(C[C@H](NC(=O)[C@H](CCC(=O)O)NC(=O)[C@H](CCC(=O)O)NC(=O)c2ccc([125I])cc2)C(=O)O)cc1)C(=O)O)C(=O)O [[^125I]27]")
"1.07 ± 0.31 % ID/g"
>>> obs_value("O=C(O)CC[C@H](NC(=O)N[C@@H](CCCCNC(=O)[C@H](Cc1ccccc1)NC(=O)[C@H](CCC(=O)O)NC(=O)c1ccc([125I])cc1)C(=O)O)C(=O)O [[^125I]17]")
"0.22 ± 0.25 % ID/g"
